Molecular target: T1, human factor X (human, UniProt P00742 41-179; P00742 183-488)
T1 construct: Zymogen used as analyte in SPR; also called FX; Human FX (MW ~58 KDa)
T1 sequence (P00742 41-179, chain 1 of 2): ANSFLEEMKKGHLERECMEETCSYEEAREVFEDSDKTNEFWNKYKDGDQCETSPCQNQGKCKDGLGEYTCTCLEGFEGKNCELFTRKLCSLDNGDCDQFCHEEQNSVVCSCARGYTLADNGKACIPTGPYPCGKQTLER
T1 sequence (P00742 183-488, chain 2 of 2): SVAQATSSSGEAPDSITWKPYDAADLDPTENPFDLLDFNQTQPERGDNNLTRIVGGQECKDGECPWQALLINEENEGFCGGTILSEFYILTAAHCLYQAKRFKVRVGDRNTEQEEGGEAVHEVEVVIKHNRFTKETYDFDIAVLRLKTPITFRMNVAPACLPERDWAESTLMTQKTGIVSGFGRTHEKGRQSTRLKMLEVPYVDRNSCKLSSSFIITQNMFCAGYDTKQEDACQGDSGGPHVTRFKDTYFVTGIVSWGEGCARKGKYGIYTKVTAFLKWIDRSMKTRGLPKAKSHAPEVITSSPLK
Experiment: SPR as in Example 10, human FX as analyte
quantity-measured: koff

TINA-0200.0128 (antibody, V domains shown, Monospecific IgG4PE) VH: QVQLVQSGAEVKKPGASVKVSCKASRYSFTSYYLHWVRQAPGQGLEWMGIINPKTGDTSYAQKFQGRVTMTRDTSTTTVYMELSSLRSEDTAVYYCARDGYGSSARCLQLWGQGTLVTVSS VL: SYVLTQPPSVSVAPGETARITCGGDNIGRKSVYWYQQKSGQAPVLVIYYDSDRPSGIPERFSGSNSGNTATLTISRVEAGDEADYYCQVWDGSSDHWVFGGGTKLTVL :: 0.112 s⁻¹
TINA-0638.0128 (antibody, V domains shown, Monospecific IgG; position is IMGT numbering, not a count on the entry) VH: QVQLIQSGAEVKKPGASVKVSCKASRYSFTSYYMHWVRQAPGQGLEWMGIINPKSGSTSYAQKFQGRVTMTRDTSTSTVYMELSSLRSEDTAVYYCARDGYGSSSRCLMLWGQGTLVTVSS VL: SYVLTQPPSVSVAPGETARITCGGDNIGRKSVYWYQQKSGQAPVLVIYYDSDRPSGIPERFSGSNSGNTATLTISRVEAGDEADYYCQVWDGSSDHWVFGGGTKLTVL :: 0.0232 s⁻¹
